Catalogue of molecules with associated TGI
System: MDA-MB-231 breast
test-details: NCI tumour cell line growth inhibition, 48 h
measured-metric: TGI (µM)

* Cc1nc2sc(C(=O)Nc3cccc4ccccc34)c(N)c2cc1C(=O)/C=C/c1ccccc1 | 2.61
* C[C@]12CC[C@@H]3c4ccc(O)cc4CC[C@H]3[C@@H]1CC[C@@H]2NS(=O)(=O)c1cccc(C(F)(F)F)c1 | 6.77
* O=C1c2ccc3c4c5ccc(c24)C(=O)N1CCCOCCCCOCCCNCc1ccc(cc1)CNCCCOCCCCOCCCN(C3=O)C5=O | 2.98
* COc1ccc(-c2cc(-c3ccccc3)nc(N3CCN(CCNc4ccnc5cc(Cl)ccc45)CC3)n2)cc1 | 3.43
* CC(CN1CCN(C)CC1)CN1c2ccccc2Sc2ccc(C(F)(F)F)cc21 (stereo unspecified) | 2.82
* CCc1cccc2c3c(sc12)C(c1ccc(Cl)cc1)C(C#N)=C(N)O3 (stereo unspecified) | 7.72
* CN1CCN(c2nc(NCCCCNc3ccnc4cc(Cl)ccc34)c3ccccc3n2)CC1 | 5.93
* Cn1ccc2c(c1=O)C(=O)c1nccc3c1c-2nc1ccccc13 | 3.13
* C=CC(=O)N1CCN(c2nc(OC[C@@H]3CCCN3C)nc3c2CCN(c2cccc4cccc(C)c24)C3)C[C@@H]1CC#N | 2.78
* COc1ccn2c(C(C)=O)cc(C(=O)c3ccc4c(c3)Sc3ccccc3N4)c2c1 | 10.6
